B1: POU domain, class 2, transcription factor 1, residues 285 to 354; numbered along this chain, P14859 (parent)
chain: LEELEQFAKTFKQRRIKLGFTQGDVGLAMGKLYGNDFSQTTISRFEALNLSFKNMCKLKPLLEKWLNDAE

variants of: B1; experiment: abundance fitness (aPCA) (normalised: wild type 0, dead -1); higher = more abundant; growth selection in yeast, the domain comes from the species named; details: Homo sapiens
Answer false (0) if abundance fitness is under -0.06, and true (1) if it is -0.06 or more.

Could you tell me if the measured abundance fitness of L48P reaches -0.06 or more?
false (0)

Could you tell me if the measured abundance fitness of K59V reaches -0.06 or more?
true (1)

Could you tell me if the measured abundance fitness of Q39V reaches -0.06 or more?
true (1)

Could you tell me if the measured abundance fitness of K17R reaches -0.06 or more?
false (0)

Could you tell me if the measured abundance fitness of A8W reaches -0.06 or more?
false (0)

Could you tell me if the measured abundance fitness of T41E reaches -0.06 or more?
false (0)

Could you tell me if the measured abundance fitness of K17N reaches -0.06 or more?
true (1)

Could you tell me if the measured abundance fitness of Q6M reaches -0.06 or more?
true (1)

Could you tell me if the measured abundance fitness of F45C reaches -0.06 or more?
false (0)

Could you tell me if the measured abundance fitness of L61R reaches -0.06 or more?
true (1)

Could you tell me if the measured abundance fitness of F11A reaches -0.06 or more?
false (0)
